The values you see were collected from the supplement of paper PMC10567573.

B1: ZNF24 (parent)
chain: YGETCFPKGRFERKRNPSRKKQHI

variants of: B1; experiment: protein stability index of a GFP-peptide fusion (GPS, HEK-293T) (PSI 1-6); higher = more stable; conditions: c terminus: a fixed tail appended;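 note: lentivirally expressed fusions sorted by FACS into six bins by GFP to DsRed ratio, PSI derived from sequencing read proportions per bin multiplied by bin number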
Quick reference for protein stability index among some variants
In your answer, state the number alone without any accompanying words.

Answered examples (4):
K20G; 3.29
S18H; 2.34
G2A; 2.34
Y1S; 4.4

// E3R : protein stability index value = 2.9

// H23S : protein stability index value = 2.56
